The values you see were collected from the supplement of paper PMC10567573.

Recorded protein stability index values for a group of variants are listed next.
B1: PLAGL1 (parent)
chain: CKDFLCQFCAQRFGRKDHLTRHTK

- Variants of: B1
- Procedure Text: protein stability index of a GFP-peptide fusion (GPS, HEK-293T) (PSI 1-6); higher = more stable;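 further: lentivirally expressed fusions sorted by FACS into six bins by GFP to DsRed ratio, PSI derived from sequencing read proportions per bin multiplied by bin number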
- Condition Notes: c terminus: a fixed tail appended
Answer with a number only.

In the examples that follow, each entry is paired with its recorded protein stability index.
K24S : 2.02
C9W : 2
K16S : 1.95
A10T : 1.96
D3I : 2.01

Could you now look at the following variant, please?
Exercise: Please look at this variant and report its protein stability index: T20N
Solution: 2.01
